Where these numbers come from: patent US20180016306A1

molecular target: aRSV-Fab (Fab fragment of anti-RSV monoclonal IgG Palivizumab, Synagis); test: SPR (Biacore 3000), aRSV-Fab on CM5 chip, peptide flowed, 25 C, pH 7.4, 1:1 fit
Readout: kon (M⁻¹ s⁻¹)

{"Binder": "LB5t-T16H.1d (designed binder) GPLGSEQVTIKENIYFEDGTVQHATFKGTFAEATAEAYRYADLLSKEHGKYTADLEDGGYTINIRFAG", "kon, M⁻¹ s⁻¹": 428000}
{"Binder": "LB5t-T16A.1d (designed binder) GPLGSEQVTIKENIYFEDGTVQAATFKGTFAEATAEAYRYADLLSKEHGKYTADLEDGGYTINIRFAG", "kon, M⁻¹ s⁻¹": 421000}
{"Binder": "LB5t-T16D.1d (designed binder) GPLGSEQVTIKENIYFEDGTVQDATFKGTFAEATAEAYRYADLLSKEHGKYTADLEDGGYTINIRFAG", "kon, M⁻¹ s⁻¹": 381000}
